Provenance of the data: the supplement of paper PMC9233669

- Tested on: biotinyl-Phe-oxazolone
- ASSAY_INFO: self-aminoacylation, catalytic enhancement (BFO) (fold over background); higher = more active; k-Seq, kA / k0A0; sequences stand for … in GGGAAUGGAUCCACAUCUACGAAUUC…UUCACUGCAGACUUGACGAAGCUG
Fewer inactive variants are shown than the library holds.
PROPERTY: self-aminoacylation
Form rule: numeric answer, no unit written next to it.

The sequence AUUCACAUAGGUCAUCUGGUG [Fam2.2 aminoacylation ribozyme variant] on biotinyl-Phe-oxazolone: self-aminoacylation was 15.7

The sequence GAGUUUGCUAAUCGUCGCAAG [Fam3.1 aminoacylation ribozyme variant] on biotinyl-Phe-oxazolone: self-aminoacylation was 2.55

The sequence UAGUUUGCUAAUAGUGGCAAG [Fam3.1 aminoacylation ribozyme variant] on biotinyl-Phe-oxazolone: self-aminoacylation was 1.63

The sequence AGUACCCUGGUCUUCGAGUGA [Fam2.1 aminoacylation ribozyme variant] on biotinyl-Phe-oxazolone: self-aminoacylation was 31.2

The sequence AUUACCCUGGCCAUCGAGUCA [Fam2.1 aminoacylation ribozyme variant] on biotinyl-Phe-oxazolone: self-aminoacylation was 0.47
